The reported numbers originate from patent US8222218B2.

Tested on: metrazole-induced clonic seizures
experimental.details: Subcutaneous Metrazole Seizure Threshold Test (scMET), mice
Assay type: in vivo
measurement.setup: Mus musculus, sc; mice, 300 mg/kg, 0.5 h; read-out: scMET 300 0.5 h (animals protected/tested)
# responders at 300 mg/kg annotations
Write the value in % as a bare number.

See these solved cases before continuing.
1) CCOC(=O)C1[C@H]2O[C@@H]3COC(C)(C)O[C@H]3C(=NO)[C@@H]12 (stereo partly drawn) :: 0
2) CCOC(=O)[C@@H]1[C@H]2O[C@@H]3COC(C)(C)O[C@H]3[C@H](OC)[C@H]21 :: 0
3) CCOC(=O)C1[C@@H]2[C@@H](OS(N)(=O)=O)[C@@H]3O[C@H](c4ccc(OC)cc4)OC[C@H]3O[C@H]12 (stereo partly drawn) [Compound 17b] :: 0
4) CCOC(=O)C1[C@@H]2[C@@H](O)[C@@H]3O[C@H](c4ccc(F)cc4F)OC[C@H]3O[C@H]12 (stereo partly drawn) [Compound 20d] :: 0
5) CCOC(=O)C1[C@@H]2[C@@H](O)[C@@H]3O[C@H](c4ccc(C(C)(C)C)cc4)OC[C@H]3O[C@H]12 (stereo partly drawn) [Compound 20c] :: 0

In the following, a different molecule is considered.
Ask: Form field - read-out: responders at 300 mg/kg; system: metrazole-induced clonic seizures; submitted item: CCOC(=O)C1[C@@H]2[C@@H](OC)[C@@H]3O[C@H](c4ccc(OC)cc4)OC[C@H]3O[C@H]12 (stereo partly drawn)
Reply: 0
